tested on: P12-Ichikawa; assay: cell viability relative to DMSO control; higher = less cytotoxic; conditions: HPLM + 10% dialyzed FBS; 48 h; 0.19 µM
cell viability overview
Reply numerically in %, unit not repeated.

C[C@@H](Oc1ccc2[nH]nc(/C=C/c3cnn(CCO)c3)c2c1)c1c(Cl)cncc1Cl = 86.2
COc1c(C)c2c(c(O)c1C/C=C(\C)CCC(=O)OCCN1CCOCC1)C(=O)OC2 = 106
COc1cc([C@@H]2c3cc4c(cc3[C@@H](O[C@@H]3O[C@@H]5CO[C@@H](C)O[C@H]5[C@H](O)[C@H]3O)[C@H]3COC(=O)[C@H]23)OCO4)cc(OC)c1O = 85.8

Turning to the following compound.
Data request: Please give the measured cell viability for this compound: COc1ccc(CC2SC(=O)NC2=O)cc1C(=O)NCc1ccc(C(F)(F)F)cc1 (centres undefined)
Data returned: 96.3

These data points were gathered from the supplement of paper PMC11451515.
